Origin of measurements: patent US4695569A

Tested on: compound 48/80-induced lethality
Experiment: Protection of rats from compound 48/80-induced lethality
Assay type: in vivo, rat (male, inbred Wistar strain)
Settings: Rattus norvegicus, 4 h, read-out: Compound 48/80 lethality test in rats-ED50
Recorded log10 of ED50 by entry
Values reflect log10 of reported ED50 (mg/kg).

Please review the following examples before continuing.
Cn1c(NCCN2CCC(Nc3nc4ccccc4n3Cc3ccc(F)cc3)CC2)nc2cnccc21.O -1.40
Cc1nc2ccccn2c(=O)c1CCN1CCC(Nc2nc3ccccc3n2Cc2cccs2)CC1 -0.51
O=c1[nH]c2ccccc2c(=O)n1CCCN1CCC(Nc2nc3ccccc3n2Cc2ccco2)CC1 -0.80
Fc1ccc(Cn2c(NC3CCN(CCc4cn5ccccc5n4)CC3)nc3ccccc32)cc1 -1.10
Cc1nc2ccccn2c(=O)c1CCN1CCC(Nc2nc3ccccc3n2Cc2cnccn2)CC1 -1.10

-- ask Find the recorded log10 of ED50 belonging to Cc1nc2n(c(=O)c1CCN1CCC(Nc3nc4ccccc4n3Cc3ccco3)CC1)CCCC2 and report it.
-- reply -0.80

-- ask Find the recorded log10 of ED50 belonging to c1ccc(Cn2c(NC3CCN(CCNc4nc5cnccc5[nH]4)CC3)nc3ccccc32)nc1 and report it.
-- reply -1.70

-- ask Find the recorded log10 of ED50 belonging to Cc1nc2ccccn2c(=O)c1CCN1CCC(Nc2nc3cc(F)c(F)cc3n2Cc2ccc(F)cc2)CC1 and report it.
-- reply -0.51
